tested on: SW-620; test: NCI tumour cell line growth inhibition, 48 h
The source made the active and inactive calls. No stated cut-off is given here; in the data, active = GI50 up to about 1.1 µM and inactive = higher.
Reply using exactly one outcome from active, inactive

Compound	Answer label
N#CC(Cc1ccccc1)N(CCC1=CCCCC1)C(c1ccccc1)c1ccccc1 (stereo unspecified)	inactive

[Q] Name the outcome recorded for CCSc1nc2n(c(=S)n1)CCN2C in the assay.
[A] inactive

[Q] For CCCCCCCCP(=O)(O)OP(=O)(O)OCC1OC(n2ccc(N)nc2=O)C(O)C1O (stereo unspecified) , what call appears in the results of this test?
[A] inactive

[Q] Give the logged outcome of this assay for the following compound: c1ccc(/N=C2\c3ccccc3C3=NCCCN32)cc1
[A] inactive

[Q] Which outcome did this test record for the compound COc1ccc2[nH]c3c(C)c4ccnc(NCCCN(C)CCCNc5ccc6nnn7c8ccccc8c(=O)c5c67)c4c(C)c3c2c1 ?
[A] active

[Q] Outcome? CSc1nc(=S)[nH]c2[nH]nc(C)c12
[A] inactive

[Q] Which outcome was entered for the compound O=[N+]([O-])c1cccc(/C=N/N=c2\ccc3ccccc3[nH]2)c1O in this test?
[A] active

[Q] # fetch the recorded call for Nc1ccccc1N here
[A] inactive

[Q] Which result was noted for this compound in the test: OCC1CCC(n2cnc3c(O)ncnc32)O1 (stereo unspecified)
[A] inactive

[Q] Hello, I am checking results. What call was entered for COc1cccc(C(=O)O[C@H]2[C@@H]3[C@]4(OC(C)=O)CO[C@@H]4C[C@H](O)[C@@]3(C)C(=O)[C@H](OC(C)=O)C3=C(C)[C@@H](OC(=O)[C@H](O)[C@@H](NC(=O)OC(C)(C)C)c4ccco4)C[C@]2(O)C3(C)C)c1 ?
[A] active

[Q] How was NC(=O)Nc1ccc(C(=O)NCCCNC(=O)c2ccc(NC(N)=O)cc2)cc1 classified in this test?
[A] inactive

Cited source: ChEMBL document CHEMBL1201862
